experiment: Solubility of compound at pH 7 by HPLC analysis; assay type: physicochemical; conditions: buffer

| smiles-string | solubility |
| --- | --- |
| CCn1c(CO)nn(-c2nc(O[C@@H](C)C(F)(F)F)c(C(=O)Nc3c(Cl)ccnc3C)cc2F)c1=O | > 400 µM |
| CCn1c(CO)nn(-c2nc(O[C@@H](C)C(F)(F)F)c(C(=O)Nc3c(C)ccnc3C(F)F)cc2F)c1=O | > 400 µM |
| CCn1c(CO)nn(-c2nc(O[C@@H](C)C(F)(F)F)c(C(=O)Nc3c(F)cccc3Cl)cc2F)c1=O | < 4 µM |
| CCn1c(CO)nn(-c2nc(O[C@@H](C)C(F)(F)F)c(C(=O)Nc3ccncc3Cl)cc2F)c1=O | < 4 µM |

====

biological target: Dihydroorotate dehydrogenase (quinone), mitochondrial (Homo sapiens)
Sequence (Q02127 whole entry): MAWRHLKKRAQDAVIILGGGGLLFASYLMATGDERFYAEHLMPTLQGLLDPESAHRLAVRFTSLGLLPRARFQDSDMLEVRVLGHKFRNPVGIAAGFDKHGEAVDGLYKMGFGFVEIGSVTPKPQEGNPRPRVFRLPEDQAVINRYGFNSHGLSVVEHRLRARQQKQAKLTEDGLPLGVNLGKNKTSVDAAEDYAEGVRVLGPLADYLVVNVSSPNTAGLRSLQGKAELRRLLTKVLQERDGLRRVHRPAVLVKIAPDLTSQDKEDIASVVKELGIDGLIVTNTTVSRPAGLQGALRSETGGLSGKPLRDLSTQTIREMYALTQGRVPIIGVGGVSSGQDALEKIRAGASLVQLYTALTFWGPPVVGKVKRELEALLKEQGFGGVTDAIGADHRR
pIC50: −log10 of the molar value.
pIC50 overview

| compound | pIC50 |
| --- | --- |
| CCn1c(CO)nn(-c2nc(O[C@@H](C)C(F)(F)F)c(C(=O)Nc3c(F)cncc3Cl)cc2F)c1=O | 8.64 |
| CCn1c(CO)nn(-c2nc(O[C@@H](C)C(F)(F)F)c(C(=O)Nc3ccccc3F)cc2F)c1=O | 8.21 |
| CCn1c(CO)nn(-c2nc(O[C@@H](C)C(F)(F)F)c(C(=O)Nc3ccnc(OC)c3Cl)cc2F)c1=O | 7.96 |
| CCn1c(CO)nn(-c2nc(OC(C)C)c(C(=O)Nc3c(F)cccc3Cl)cc2F)c1=O | 9.30 |
| CCn1c(CO)nn(-c2nc(O[C@@H](C)C(F)(F)F)c(C(=O)Nc3c(C)ccnc3Cl)cc2F)c1=O | 8.96 |
| CCn1c(CO)nn(-c2nc(O[C@@H](C)C(F)(F)F)c(C(=O)Nc3ccc(C)nc3Cl)cc2F)c1=O | 7.85 |
| CCn1c(CO)nn(-c2nc(O[C@@H](C)C(F)(F)F)c(C(=O)Nc3cc(OC)ncc3C)cc2F)c1=O | 8.00 |
| CCn1c(CO)nn(-c2nc(OC3CC(F)(F)C3(F)F)c(C(=O)Nc3c(F)cccc3Cl)cc2F)c1=O (stereo unspecified) | 7.66 |
| CCn1c(CO)nn(-c2nc(O[C@@H](C)C(F)(F)F)c(C(=O)Nc3ccncc3Cl)cc2F)c1=O | 7.64 |
| CCn1c(CO)nn(-c2nc(O[C@@H](C)C(F)(F)F)c(C(=O)Nc3ncccc3Cl)cc2F)c1=O | 8.28 |
| CCn1c(CO)nn(-c2nc(SC(C)C)c(C(=O)Nc3c(F)cccc3Cl)cc2F)c1=O | 6.52 |
